# maps each entry to its pIC50
# Test system: HCV replicon
# Experimental Details: microbe, parasite or virus in culture
# Format: cell-based
# Condition Parameters: Replicon IC50 values are determined by firefly luciferase signal; bicistronic replicon, 2 days; read-out: Replicon IC5Os
pIC50: −log10 of the molar value.

Example cases with answers are listed next.
{"Compound": "CCn1c(-c2ccc(S(N)(=O)=O)cc2)c(C#N)c2ccc(OC)cc21 [Compound 278]", "pIC50": "< 5.70"}
{"Compound": "COc1ccc(-n2cc(-c3nc(C(C)(C)C)cs3)c3ccc(C(N)=O)cc32)cc1 [Compound 104]", "pIC50": "5.70 to 6.30"}
{"Compound": "COc1ccc(-n2cc(C#N)c3ccc(C(=O)NO)cc32)cc1 [Compound 89]", "pIC50": "5.70 to 6.30"}
{"Compound": "CCn1c(-c2ccc(N)cc2)c(C#N)c2cc(-c3cccc(OC)c3)ccc21 [Compound 459]", "pIC50": "5.70 to 6.30"}
{"Compound": "CCOC(=O)Nc1cccc(-c2c(C#N)c3ccc(OCCCn4ccnn4)cc3n2CC)c1 [Compound 529]", "pIC50": "5.70 to 6.30"}
{"Compound": "CCn1c(-c2ccc(NS(C)(=O)=O)cc2)c(C#N)c2cc(-c3cccc(OC)c3)ccc21 [Compound 487]", "pIC50": "5.70 to 6.30"}

Query block: What does the record list as pIC50 for CCn1c(-c2cccc(NC(=O)OCc3ccccc3)c2)c(C#N)c2ccc(OC(C)C)cc21 [Compound 593] ?
Result block: < 5.70

Query block: // query: CCn1c(-c2ccc(C(=O)N3CCOCC3)cc2)c(C#N)c2ccc(OC(C)C)cc21 [Compound 271]
Result block: 5.70 to 6.30

Query block: // query: CCn1cc(C#N)c2cc(-c3cccs3)ccc21 [Compound 140]
Result block: < 5.70

Query block: // query: CCn1cc(C#N)c2cc(C(F)(F)F)ccc21 [Compound 179]
Result block: 5.70 to 6.30

Query block: // query: CCn1c(NC(=O)c2cccc(F)c2)c(C#N)c2ccc(OC)cc21 [Compound 214]
Result block: > 6.30

Query block: // query: CCn1c(-c2cccc(NC(=O)C(C)C)c2)c(C#N)c2ccc(OC)cc21 [Compound 383]
Result block: < 5.70

Query block: // query: CCn1c(C#Cc2ccccc2)c(C#N)c2ccc(OC)cc21 [Compound 64]
Result block: < 5.70

Query block: // query: C=CC(C)OC(=O)Nc1ccc(-c2c(C#N)c3ccc(OC)cc3n2CC)cc1 (stereo not drawn) [Compound 359]
Result block: < 5.70

Query block: // query: CCn1c(-c2cccc(NC(=O)OCCCCl)c2)c(C#N)c2cc(OC)ccc21 [Compound 509]
Result block: < 5.70

Query block: // query: COc1ccc2c(C#N)c(-c3ccc(S(N)(=O)=O)cc3)n(CC3CCCC3)c2c1 [Compound 719]
Result block: < 5.70

Query block: // query: CCn1c(-c2ccc(S(=O)(=O)NC3CC3)cc2)c(C#N)c2ccc(OC)cc21 [Compound 363]
Result block: 5.70 to 6.30

Query block: // query: CCCCOc1ccc2c(C#N)cn(CC)c2c1 [Compound 11]
Result block: < 5.70
